Assay: physchem
Details: ethanol, 200 proof
Non-standard residues stand in square brackets, D forms with d. Residues, ends and D or L forms follow the SMILES beside them. d1Nal = N[C@H](Cc1cccc2ccccc12)C(=O)O
PARAMETER: solubility

Lookup: What value of solubility has been recorded for this entry: CC(C)C[C@@H](NC(=O)[C@H](N)CCCCN)C(=O)N[C@H](Cc1ccccc1)C(=O)N[C@H](CCCNC(=N)N)C(=O)N[C@H](Cc1cccc2ccccc12)C(=O)N[C@H](CCC(N)=O)C(=O)N[C@H](C)C(=O)N[C@H](CCCCN)C(=O)N[C@H](Cc1cccc2ccccc12)C(N)=O [XMP.629 acetate] (H-[dK][dL][dF][dR][d1Nal][dQ][dA][dK][d1Nal]-NH2)
Found: < 2200 µg/mL

Each recorded value in this set is attributed to patent US20050148495A1.
